// melting point lookup, one value per entry

{"SMILES RECORD": "CCCOc1cc(C)cc2c(=O)c(-c3ccc(OC)cc3)c[nH]c12", "melting point": "161 to 162 °C"}
{"SMILES RECORD": "COc1ccc(-c2c[nH]c3c(N(C)CC(C)C)ccc(C)c3c2=O)cc1", "melting point": "111 to 113 °C"}
{"SMILES RECORD": "CCCOc1cccc2c(=O)c(-c3cccc(-c4ccc(OC)cc4OC)c3)c[nH]c12", "melting point": "81 to 84 °C"}

* * *

{"COMPOUND": "CCCOc1cccc2c(=O)c(-c3ccc(Cl)cc3Cl)c[nH]c12 [Example 27]", "melting point": "189 °C"}
{"COMPOUND": "CCCOc1cccc2c(=O)c(-c3cccc(OC)c3OC)c[nH]c12 [Example 41]", "melting point": "253 to 255 °C"}
{"COMPOUND": "CCCOc1ccc(C)c2c(=O)c(-c3cccs3)c[nH]c12 [Example 61]", "melting point": "104 to 105 °C"}
{"COMPOUND": "COc1ccc(-c2c[nH]c3c(-c4cccs4)ccc(C)c3c2=O)cc1 [Example 100]", "melting point": "197 to 199 °C"}
{"COMPOUND": "CCOc1ccc(OCC)c2c(=O)c(-c3ccc(OC)cc3)c[nH]c12 [Example 25]", "melting point": "182 to 183 °C"}
{"COMPOUND": "CCCOc1c(OC)cc(C)c2c(=O)c(-c3ccc(OC)cc3)c[nH]c12 [Example 37]", "melting point": "195 to 196 °C"}
{"COMPOUND": "CCCOc1cccc2c(=O)c(-c3c(Cl)cccc3Cl)c[nH]c12 [Example 28]", "melting point": "193 °C"}
{"COMPOUND": "CCCOc1ccc(C)c2c(=O)c(-c3ccc4c(c3)OCO4)c[nH]c12 [Example 60]", "melting point": "110 to 115 °C"}
{"COMPOUND": "CCCOc1c(C)cc(C)c2c(=O)c(-c3ccc(OC)cc3)c[nH]c12 [Example 23]", "melting point": "174 to 175 °C"}
{"COMPOUND": "CCCOc1cccc2c(=O)c(-c3ccc(F)cc3Cl)c[nH]c12 [Example 29]", "melting point": "230 °C"}
{"COMPOUND": "CCCOc1ccc(C)c2c(=O)c(-c3ccc(OC)cc3)cn(CC3CC3)c12 [Example 92]", "melting point": "100 to 101 °C"}
{"COMPOUND": "COCCN(C)c1ccc(C)c2c(=O)c(-c3ccc(OC)cc3)c[nH]c12.Cl", "melting point": "90 to 93 °C"}
{"COMPOUND": "CCCOc1cccc2c(=O)c(-c3ccc(OC)cc3)c[nH]c12 [Example 3]", "melting point": "231 to 233 °C"}

Reference source: patent US20130217678A1
